# assayed_target: yeast α-glucosidase enzyme
# test_name: in vitro α-glucosidase inhibition (PNPG substrate)
# test_context: PNPG substrate
Listing of recorded pIC50 by entry.
API: returns pIC50 as number; meaning -log10 of concentration in mol/L.

molecule: COc1cccc(C(=O)C2=C(O)c3ccccc3S(=O)(=O)N2CC(=O)Nc2ccc(Cl)cc2)c1 [Compound 12c]
recorded_value: 4.39
//
molecule: COc1cccc(C(=O)C2=C(O)c3ccccc3S(=O)(=O)N2CC(=O)Nc2ccc([N+](=O)[O-])cc2)c1 [Compound 12f]
recorded_value: 4.01
//
molecule: COc1cccc(C(=O)C2=C(O)c3ccccc3S(=O)(=O)N2CC(=O)Nc2ccccc2Br)c1 [Compound 12g]
recorded_value: 4.45
//
molecule: COc1cccc(C(=O)C2=C(O)c3ccccc3S(=O)(=O)N2CC(=O)Nc2ccccc2Cl)c1 [Compound 12a]
recorded_value: 4.33
//
molecule: COc1cccc(C(=O)C2=C(O)c3ccccc3S(=O)(=O)N2CC(=O)Nc2cccc(C)c2)c1 [Compound 12k]
recorded_value: 4.52
//
molecule: COc1cccc(C(=O)C2=C(O)c3ccccc3S(=O)(=O)N2CC(=O)Nc2ccccc2[N+](=O)[O-])c1 [Compound 12d]
recorded_value: 3.99

Enquiry: Look up pIC50: COc1cccc(C(=O)C2=C(O)c3ccccc3S(=O)(=O)N2CC(=O)Nc2cccc(Br)c2)c1 [Compound 12h]
Return: 4.06

Enquiry: And COc1cccc(C(=O)C2=C(O)c3ccccc3S(=O)(=O)N2CC(=O)Nc2ccccc2OC)c1 [Compound 12l] ?
Return: 3.96

Enquiry: And COc1cccc(C(=O)C2=C(O)c3ccccc3S(=O)(=O)N2CC(=O)Nc2ccc(Br)cc2)c1 [Compound 12i] ?
Return: 4.59

###

# UniProt P0C1B3: IC50 values follow
Reply with just the number (in µM).

compound: COc1cccc(C(=O)C2=C(O)c3ccccc3S(=O)(=O)N2CC(=O)Nc2ccc([N+](=O)[O-])cc2)c1 [Compound 12f]
units_symbol: µM
recorded_value: 29
//
compound: COc1ccc(NC(=O)CN2C(C(=O)c3cccc(OC)c3)=C(O)c3ccccc3S2(=O)=O)cc1 [Compound 12m]
units_symbol: µM
recorded_value: 122

Consider the record given below.
Enquiry: Look up IC50: COc1cccc(C(=O)C2=C(O)c3ccccc3S(=O)(=O)N2CC(=O)Nc2ccc(Br)cc2)c1 [Compound 12i]
Return: 7.52

###

# assayed_target: α-glucosidase
# test_name: enzyme inhibition kinetics (Lineweaver–Burk), α-glucosidase
# test_context: secondary plots; PNPG 1–9 mM; read-out: Ki (inhibition constant), α-glucosidase
observed_property: Ki (µM)
Reply with just the number (in µM).

Enquiry: Look up Ki: COc1cccc(C(=O)C2=C(O)c3ccccc3S(=O)(=O)N2CC(=O)Nc2ccc(Br)cc2)c1 [Compound 12i]
Return: 100

###

# assayed_target: Aspergillus oryzae α-amylase (Aspergillus oryzae, UniProt P0C1B3)
# Construct: purchased Sigma-Aldrich, Munich, Germany
# test_name: in vitro α-amylase inhibition (starch substrate, DNSA)
# Type: biochemical
observed_property: IC50 (µM)
Reply with just the number (in µM).

Recorded IC50, per entry:
molecule: COc1cccc(C(=O)C2=C(O)c3ccccc3S(=O)(=O)N2CC(=O)Nc2cccc(Br)c2)c1 [Compound 12h]
recorded_value: 110
//
molecule: COc1cccc(C(=O)C2=C(O)c3ccccc3S(=O)(=O)N2CC(=O)Nc2ccccc2Br)c1 [Compound 12g]
recorded_value: 11.7
//
molecule: COc1cccc(C(=O)C2=C(O)c3ccccc3S(=O)(=O)N2CC(=O)Nc2ccccc2[N+](=O)[O-])c1 [Compound 12d]
recorded_value: 15.1

Consider the record given below.
Enquiry: Look up IC50: COc1cccc(C(=O)C2=C(O)c3ccccc3S(=O)(=O)N2CC(=O)Nc2ccccc2Cl)c1 [Compound 12a]
Return: 13.3
